Exercise: for every item that follows, state its recorded pest or weed control at 10 mg/kg.
# System: brown dog ticks (Rhipicephalus sanguineus) nymphs
# Experiment description: Efficacy of various isoxazolines against brown dog ticks on Guinea pigs (Example 4)
# Format: in vivo
# Setup conditions: po, Guinea pigs, oral 10 mg/kg on Day 1, infested Day Zero, engorged detached nymphs counted from Day 4, read-out: Inhibition (efficacy on engorged nymphs)
I only need the number, in %, no unit after it.

Assign pest or weed control at 10 mg/kg to the following record: CO/N=C\NC(=O)c1ccc(C2=NOC(c3cc(Cl)cc(Cl)c3)(C(F)(F)F)C2)cc1C (stereo not shown) [Compound 5-43]
0

Assign pest or weed control at 10 mg/kg to the following record: NC(=O)NC(=O)c1ccc(C2=NOC(c3cc(Cl)cc(Cl)c3)(C(F)(F)F)C2)cc1I (stereo not shown) [Compound 5-59]
96.3

Assign pest or weed control at 10 mg/kg to the following record: COCN(C(=O)c1ccc(C2=NOC(c3cc(Cl)cc(Cl)c3)(C(F)(F)F)C2)cc1C)c1ncc(C#N)cn1 (stereo not shown) [Compound 5-46]
26.4

Assign pest or weed control at 10 mg/kg to the following record: Cc1cc(C2=NOC(c3cc(Cl)cc(Cl)c3)(C(F)(F)F)C2)ccc1C(=O)NN(C)c1ccccc1 (stereo not shown) [Compound 5-52]
93.4
